B1: library; numbered along this chain (parent)
chain: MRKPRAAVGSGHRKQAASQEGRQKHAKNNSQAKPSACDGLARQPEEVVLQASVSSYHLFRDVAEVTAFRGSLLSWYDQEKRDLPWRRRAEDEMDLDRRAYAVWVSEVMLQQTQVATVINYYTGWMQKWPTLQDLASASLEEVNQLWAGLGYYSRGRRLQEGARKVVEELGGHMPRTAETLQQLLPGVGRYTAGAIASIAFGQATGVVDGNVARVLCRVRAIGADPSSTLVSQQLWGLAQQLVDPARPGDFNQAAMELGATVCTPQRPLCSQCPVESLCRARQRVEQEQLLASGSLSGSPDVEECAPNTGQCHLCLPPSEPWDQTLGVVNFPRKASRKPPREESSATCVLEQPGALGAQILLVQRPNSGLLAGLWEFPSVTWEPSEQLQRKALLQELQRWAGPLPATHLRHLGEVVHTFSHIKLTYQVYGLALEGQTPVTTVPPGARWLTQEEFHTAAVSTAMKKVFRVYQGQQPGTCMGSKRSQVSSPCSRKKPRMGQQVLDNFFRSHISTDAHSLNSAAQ

# Variants of: B1
# protocol details: 8OG:A repair function score (normalized; synonymous = 0, nonsense = -1) (normalized log-likelihood score); higher = more repair activity (WT-like);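 note: cells sorted at 72 h after reporter transfection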
# conditions: with 8OG:A DNA repair reporter (GFP) in HEK-293 MUTYH KO cells
We'd kindly ask you to apply these 8OG:A repair function score classes: LOW = under -0.3, MID = from -0.3 up to -0.06, HIGH = -0.06 and over

>  <mutation string>
Q159H

>  <category>
HIGH

$$$$
>  <mutation string>
T436Y

>  <category>
HIGH

$$$$
>  <mutation string>
Q323W

>  <category>
HIGH

$$$$
>  <mutation string>
E287D

>  <category>
HIGH

$$$$
>  <mutation string>
H454F

>  <category>
MID

$$$$
>  <mutation string>
M108G

>  <category>
LOW

$$$$
>  <mutation string>
G372K

>  <category>
LOW

$$$$
>  <mutation string>
A194F

>  <category>
LOW

$$$$
>  <mutation string>
P320Q

>  <category>
MID

$$$$
>  <mutation string>
R246E

>  <category>
LOW

$$$$
>  <mutation string>
S136N

>  <category>
MID

$$$$
>  <mutation string>
F376K

>  <category>
LOW

$$$$
>  <mutation string>
E46H

>  <category>
MID

$$$$
>  <mutation string>
L149F

>  <category>
LOW

$$$$
>  <mutation string>
Y151M

>  <category>
LOW

$$$$
>  <mutation string>
L268C

>  <category>
MID

$$$$
>  <mutation string>
G171W

>  <category>
LOW

$$$$
>  <mutation string>
V230A

>  <category>
HIGH

$$$$
>  <mutation string>
G188S

>  <category>
LOW

$$$$
>  <mutation string>
H410V

>  <category>
MID

$$$$
>  <mutation string>
Q113G

>  <category>
MID

$$$$
>  <mutation string>
A431Y

>  <category>
MID

$$$$
>  <mutation string>
L139S

>  <category>
MID

$$$$
>  <mutation string>
L361D

>  <category>
LOW

$$$$
>  <mutation string>
Y469I

>  <category>
MID

$$$$
>  <mutation string>
R266M

>  <category>
HIGH

$$$$
>  <mutation string>
P488I

>  <category>
HIGH

$$$$
>  <mutation string>
R60N

>  <category>
HIGH

$$$$
>  <mutation string>
T440P

>  <category>
HIGH

$$$$
>  <mutation string>
S318H

>  <category>
HIGH

$$$$
